Listed molecules paired with reported IC50
Test system: A549
test: MTT cell viability assay, A549
Type: cell-based, human
conditions: Homo sapiens; Table S1, A549; read-out: IC50 (mean ± SD)
assay_readout: IC50

* C=C(CBr)C1CC[C@]2(C)C(CCC3C4C(C(C)C)CC[C@]4(C(=O)OC)CC[C@]32C)[C@@]1(C)CCC#N (stereo partly shown) | > 100 µM
* COC(=O)[C@]12CCC(C(C)C)C1C1CCC3[C@@](C)(CCC#N)C(C(=O)CBr)CC[C@@]3(C)[C@]1(C)CC2 (stereo partly shown) | 27.7 µM
* C=C1C2CC[C@]3(C)C(CCC4C5C(C(C)C)CC[C@]5(C(=O)OC)CC[C@]43C)[C@@]2(C)C[C@@H](C#N)[C@@H]1O (stereo partly shown) | > 100 µM
* CC(=O)C1CC[C@]2(C)C(CCC3C4C(C(C)C)CC[C@]4(COC(=O)c4ccccc4)CC[C@]32C)[C@@]1(C)CCC#N (stereo partly shown) | > 100 µM
* COC(=O)[C@]12CCC(C(C)C)C1C1CCC3[C@@]4(C)C[C@@H](C#N)C[C@H](O)C4CC[C@@]3(C)[C@]1(C)CC2 (stereo partly shown) | 25.9 µM
* CC1=C(C#N)C[C@@]2(C)C1CC[C@]1(C)C2CCC2C3C(C(C)C)CC[C@]3(CO)CC[C@]21C (stereo partly shown) | > 200 µM
* C=C(CBr)C1CC[C@]2(C)C(CCC3C4C(C(C)C)CC[C@]4(COC(=O)c4ccccc4)CC[C@]32C)[C@@]1(C)CCC#N (stereo partly shown) | > 100 µM
* C=C1C2CC[C@]3(C)C(CCC4C5C(C(C)C)CC[C@]5(CO)CC[C@]43C)[C@@]2(C)C[C@@H](C#N)[C@@H]1O (stereo partly shown) | > 100 µM
* C=C1C[C@H](C#N)C[C@@]2(C)C1CC[C@]1(C)C2CCC2C3C(C(C)C)CC[C@]3(C(=O)OC)CC[C@]21C (stereo partly shown) | > 100 µM
* C=C1C=C(C#N)C[C@@]2(C)C1CC[C@]1(C)C2CCC2C3C(C(C)C)CC[C@]3(CO)CC[C@]21C (stereo partly shown) | > 100 µM
